assay.target: T1, YTHDC2 YTH domain WT (Mus musculus, UniProt B2RR83 1353-1436)
T1 sequence: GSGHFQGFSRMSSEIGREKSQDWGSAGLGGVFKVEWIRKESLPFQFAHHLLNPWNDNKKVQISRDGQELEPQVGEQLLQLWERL
protocol.details: fluorescence anisotropy
measurement.type: Kd
Please state the value followed by its unit.

Request: Kd for CCGGACUGU (ssRNA, m6A at position 5) [m6A-modified RNA probe] ?
Response: 4.1 µM

Request: Kd for CCGGACUGU (ssRNA) [unmodified RNA probe] ?
Response: 54 µM
